These entries and their values trace back to ChEMBL document CHEMBL3734723.

Measured growth at 10 µM values are reported for all entries that follow.
assay: Cytotoxicity against human UACC62 cells assessed as cell growth at 10 uM incubated for 48 hrs by sulforhodamine B assay; assay type: functional; details: UACC-62, 48 h, read-out: Activity

>  <sample smiles>
Cc1cc(=O)oc2c(C)c(O)c(-c3cc4ccccc4[nH]3)cc12

>  <unit string>
%

>  <growth at 10 µM>
48.8

$$$$
>  <sample smiles>
Cc1c(O)c(-c2cc3ccccc3[nH]2)cc2c3c(c(=O)oc12)CCC3

>  <unit string>
%

>  <growth at 10 µM>
59.1

$$$$
>  <sample smiles>
Cc1c(O)c(-c2cc3ccccc3[nH]2)cc2c3c(c(=O)oc12)CCCC3

>  <unit string>
%

>  <growth at 10 µM>
48.2

$$$$
>  <sample smiles>
Cc1cc(=O)oc2c(C)c(O)c(-c3cc4ccc(F)cc4[nH]3)cc12

>  <unit string>
%

>  <growth at 10 µM>
26

$$$$
>  <sample smiles>
CCCc1cc(=O)oc2c(C)c(O)c(-c3ccc4c(=O)n(-c5ccccc5)nc-4[nH]3)cc12

>  <unit string>
%

>  <growth at 10 µM>
60.6

$$$$
>  <sample smiles>
Cc1cc(=O)oc2c(C)c(O)c(-c3ccnc(N)n3)cc12

>  <unit string>
%

>  <growth at 10 µM>
51.5

$$$$
